- System Tested: human nerve growth factor (beta-NGF) (human, UniProt P01138 122-241)
- Sequence (P01138 122-241): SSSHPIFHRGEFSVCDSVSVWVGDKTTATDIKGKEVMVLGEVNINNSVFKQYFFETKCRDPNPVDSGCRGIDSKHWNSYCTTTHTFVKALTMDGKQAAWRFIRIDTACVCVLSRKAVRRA
- Procedure Details: cell-based or functional assay
Readout Type: IC50, PC12 cell survival
The reply must contain the numeric value and, after it, the unit.

Give IC50, PC12 cell survival for each listed item.
1. 1214D10 human IgG4 (antibody, V domains shown) VH: EVQLVQSGAEAKKPGSSVKVSCKASGGTFSTYGISWVRQAPGRGLEWIGGIIPIFDTGNSAQSFQGRVAITADESTSTAYMEVSSLRSDDTAVYYCASSSRIYDAHLNHHGYYDMDVWGQGTMVTVSS VL: QAVLTQPSSVSTPPGQKVTISCSGSSSNIGNNYVSWYQQLPGTAPKLLIYDNNKRPSGIPDRFSGSKSGTSATLGITGLQAGDEADYYCGTWDSSLSAWVFGGGTKLTVL
2. 1158A1 human IgG4 (antibody, V domains shown) VH: EVQLVQSGAEVKKPGSSVKVSCKASGGTFSTYGISWVRQAPGQGLEWIGGIIPIFGTGNSAQSFQGRVTITADESTSTAYMEVSSLRSDDTAVYYCASSSRIYDHHNHVGGYYDMDVWGQGTMVTVSS VL: QAVLTQPSSVSTPPGQKVTISCSGSSSNIGNNYASWYQQLPGTAPKLLIYDNNKRPSGIPDRFSGSKSGTSATLGITGLQTGDEADYYCGTWDGSLSAWVFGGGTKLTVL

1. 0.35 nM
2. 0.48 nM
